Kindly state kon for each of the entries shown.
- experimental.target: T1, Soluble heterodimeric CD3 protein (hCD3-epsilon/hCD3-delta) with either a human Fc tag (hFcΔAdp/hFc) or a … (human, UniProt P07766 23-126; P04234 22-105)
- T1 construct: also called hCD3ε/δ; not shown: Fc tag: human (hFcΔAdp/hFc)
- T1 sequence (P07766 23-126 limits assumed, stated change not applied, chain 1 of 2): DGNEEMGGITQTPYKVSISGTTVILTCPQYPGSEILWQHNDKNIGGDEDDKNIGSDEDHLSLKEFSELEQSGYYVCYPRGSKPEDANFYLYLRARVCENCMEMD
- T1 sequence (P04234 22-105 limits assumed, stated change not applied, chain 2 of 2): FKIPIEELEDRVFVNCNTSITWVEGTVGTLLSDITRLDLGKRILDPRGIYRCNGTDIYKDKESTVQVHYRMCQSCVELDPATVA
- experiment.notes: SPR Biacore 25C antigen-capture
One number for each entry, in M⁻¹ s⁻¹.

Solved cases (3 shown):
H1H5781P (antibody, human IgG1, V domains shown, H1H: human IgG1 Fc; divalent) VH: EVQLVESGGGLVQPGRSLRLSCAASGFTFDDFTMHWVRQAPGKGLEWVSDISWNSGSIDYADSVKGRFTISRDNARNSLFLQMSSLRTEDTASYYCIKDKSGYGSYNYGLDVWGQGTTVTVSS VL: EIVLTQSPGTLSLSPGDRATLSCRASQSVSSIYLAWYQQKPGQAPRLLIHGASTRATGIPDRFSGSGSGTDFTLTISRLEPEDFALYYCHQRVSSPYTFGQGTKLEIK: 140000
H1H5771P (antibody, human IgG1, V domains shown, H1H: human IgG1 Fc; divalent) VH: EVQLVESGGGLVQPGRSLRLSCAASGFSFDNYAMHWVRQAPGQGLEWVSGISWNSGSRDYADSVKGRFTISRDNARNSLFLQMNSLSNEDTAMYYCAKDKSGYGSYFYGMDVWGQGTTVTVSS VL: EIVLTQSPGTLSLSPGDRATLSCRASQSIRNIYLAWYQQKPGQAPRLLIHGASTRATGIPDRFSGSGSGTDFTLTISRLEPEDFAVYYCQQRVSLPYTFGQGTKLEIK: 923000
H1H2712N (antibody, human IgG1, V domains shown, H1H: human IgG1 Fc; divalent) VH: EVQLVESGGGLVQPGGSLRLSCAATGFTFDDFTMHWVRQAPGKGLEWVSGISWNSGSIGYVDSVKGRFTISRDNAKNSLYLQMNSLRAEDTALYYCAKDNSGYGYYYYGMDVWGQGTTVTVSS VL: EIVMTQSPATLSVSPGERATLSCRASHSVSRNSAWYQQKPGQAPRLLIYGASTRATGIPARFSGSGSGTEFTLTISSLQSEDFAIYYCQQYNNWPLTFGGGTKVEIK: 89300

With those in mind, consider the next binder.
Give the value of kon reported for the following: H2M2885N (antibody, mouse IgG2, V domains shown, H2M: mouse IgG2 Fc, human variable regions; divalent) VH: QVQLVESGGGVVQPGRSLRLSCAASGFTFRSFGMHWVRQAPGRGLEWVAMIYFDGKNKYYADSVRGRFTISRDNSKNTLYLEMSSLRAEDTAVYFCARGPGYNWLDPWGQGTLVTVSS VL: EIVMTQSPATLSVSPGERVILSCRASQSISRNLAWYQQKPGQAPRLLIYGATTRATGVPARFSGSGSGTEFTLTISSLQSEDFAVFYCQQYNNRPLTFGGGTEVEIK 1.37e+06
